# tgt: ARHGEF12, Q9NZN5-2
# Sequence (Q9NZN5 other isoform, or with tags, fused parts or gaps): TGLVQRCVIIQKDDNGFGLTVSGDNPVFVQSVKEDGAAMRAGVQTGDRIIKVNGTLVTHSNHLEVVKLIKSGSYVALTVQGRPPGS
# measurement_protocol: holdup assay
# Set-up: key: below the threshold = too weak to quantify, mostly under pKd 3.1 to 4
# stated_conditions: plain residues with an end cap or a label only (N-terminal biotin on a linker: ado-ado)
assay_readout: pKd

Below are worked cases with known answers.
>  <binder>
VCMGDHWFDV [PRKN, O60260]

>  <pKd>
below the threshold

$$$$
>  <binder>
EKPIDSETKM [SLC1A3, P43003]

>  <pKd>
below the threshold

$$$$
>  <binder>
AKADAQESRL [PLCB2, Q00722]

>  <pKd>
3.93

$$$$
>  <binder>
DLLGGGSDSI [TNRC6B, Q9UPQ9]

>  <pKd>
3.71

$$$$
>  <binder>
NSTHNLKDYV [CLDN20, P56880]

>  <pKd>
below the threshold

$$$$

// lookup pKd for LVEEEEPMNL [HDAC7, Q8WUI4] below the threshold

pKd lookup needed for TFSRRPKTRV [CD226, Q15762] , thanks. 3.93

Find the recorded pKd belonging to NISARRFTLC [FAM167B, Q9BTA0] and report it. 4.13
